experimental.target: recombinant HCV NS5B (Hepatitis C virus genotype 1b, UniProt P26663)
Sequence (P26663 2420-3010 limits assumed): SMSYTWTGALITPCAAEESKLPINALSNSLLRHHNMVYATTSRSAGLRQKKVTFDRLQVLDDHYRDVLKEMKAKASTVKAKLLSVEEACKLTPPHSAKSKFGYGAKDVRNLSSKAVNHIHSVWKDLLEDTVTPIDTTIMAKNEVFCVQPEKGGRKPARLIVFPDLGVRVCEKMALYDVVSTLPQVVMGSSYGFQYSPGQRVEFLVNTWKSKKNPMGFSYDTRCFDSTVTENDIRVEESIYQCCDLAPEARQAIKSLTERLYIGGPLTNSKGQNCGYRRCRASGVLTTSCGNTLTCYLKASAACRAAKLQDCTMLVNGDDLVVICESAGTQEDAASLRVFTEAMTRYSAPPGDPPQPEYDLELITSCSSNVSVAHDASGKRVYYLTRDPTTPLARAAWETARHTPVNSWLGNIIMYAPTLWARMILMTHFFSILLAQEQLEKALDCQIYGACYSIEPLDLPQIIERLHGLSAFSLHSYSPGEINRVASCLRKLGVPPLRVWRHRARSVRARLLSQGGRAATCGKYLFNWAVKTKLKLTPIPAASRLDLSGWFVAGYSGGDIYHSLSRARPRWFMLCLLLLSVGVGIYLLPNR
experimental.details: biochemical
test.settings: flashplate, polyrA/biotinylated-oligo dT, 100 nM NS5B, 2 hrs at room temperature; read-out: RNA pol Assay 2 IC50 (μm)
pIC50: −log10 of the molar value.
attribute.measured: pIC50

Known pIC50 results, listed for orientation:
>  <compound>
O=C(O)C(Cc1ccccc1)N(Cc1ccc(C(F)(F)F)cc1)C(=O)c1ccc(Cl)cc1Cl (stereo not shown)

>  <value.observed>
4.70 to 5.30

$$$$
>  <compound>
CC(C)(C)OC(=O)N1CCC[C@@H]1CN(C(=O)c1ccc(Cl)cc1Cl)[C@@H](Cc1ccccc1)C(=O)O

>  <value.observed>
4.70 to 5.30

$$$$
>  <compound>
O=C(O)[C@H](Cc1ccccc1)N(Cc1sccc1Br)C(=O)c1ccc(Cl)cc1Cl

>  <value.observed>
> 5.30

$$$$

Proceeding to the next compound to report its pIC50.
[ask] Give the reported pIC50 for this compound. O=C(O)C(c1cccs1)N(Cc1ccc(-c2cccc(C(F)(F)F)c2)o1)C(=O)c1ccc(Cl)cc1Cl (stereo not shown)
[reply] 4.70 to 5.30

----------
experimental.target: recombinant HCV NS5B (Hepatitis C virus genotype 1b, UniProt P26663)
experimental.details: biochemical
test.settings: flashplate, polyrA/biotinylated-oligo dT, 100 nM NS5B, 2 hrs at room temperature; read-out: RNA pol Assay 2 IC50 (μm)
pIC50: −log10 of the molar value.
attribute.measured: pIC50

[ask] Report pIC50 on recombinant HCV NS5B (Hepatitis C virus genotype 1b, UniProt P26663) for this entry: O=C(O)C(Cc1ccccc1)N(Cc1cccn1S(=O)(=O)c1ccccc1)C(=O)c1ccc(Cl)cc1Cl (centres unmarked) [compound #174]
[reply] 4.70 to 5.30

[ask] Report pIC50 on recombinant HCV NS5B (Hepatitis C virus genotype 1b, UniProt P26663) for this entry: Cn1nc(C(F)(F)F)c(CN(C(=O)c2ccc(Cl)cc2Cl)[C@@H](Cc2ccccc2)C(=O)O)c1Oc1cccc(Cl)c1 [compound #153]
[reply] 4.70 to 5.30

[ask] Report pIC50 on recombinant HCV NS5B (Hepatitis C virus genotype 1b, UniProt P26663) for this entry: CN(C(=O)c1ccc(Cl)cc1Cl)[C@H](Cc1ccc(-c2cc3ccccc3o2)cc1)C(=O)O [Compound #29]
[reply] 4.70 to 5.30

[ask] Report pIC50 on recombinant HCV NS5B (Hepatitis C virus genotype 1b, UniProt P26663) for this entry: CN(C(=O)c1ccc(Cl)cc1Cl)[C@H](Cc1ccc(Br)s1)C(=O)O (stereo in doubt) [compound #169]
[reply] > 5.30

[ask] Report pIC50 on recombinant HCV NS5B (Hepatitis C virus genotype 1b, UniProt P26663) for this entry: Cc1ccc(C(=O)N(Cc2cc(-c3ccc(F)c(Cl)c3)cs2)[C@@H](Cc2ccccc2)C(=O)O)c(C)c1 [Compound #192]
[reply] > 5.30

[ask] Report pIC50 on recombinant HCV NS5B (Hepatitis C virus genotype 1b, UniProt P26663) for this entry: O=C(O)C(Cc1ccccc1)N(Cc1ccccc1OCc1ccccc1)C(=O)c1ccc(Cl)cc1Cl (centres unmarked) [compound #177]
[reply] 4.70 to 5.30

[ask] Report pIC50 on recombinant HCV NS5B (Hepatitis C virus genotype 1b, UniProt P26663) for this entry: CC(C)(C)OC(=O)N1CCC[C@H]1CN(C(=O)c1ccc(Cl)cc1Cl)[C@@H](Cc1ccccc1)C(=O)O [compound #164]
[reply] 4.70 to 5.30

[ask] Report pIC50 on recombinant HCV NS5B (Hepatitis C virus genotype 1b, UniProt P26663) for this entry: O=C(O)[C@H](Cc1ccccc1)N(C[C@H]1CCCN1)C(=O)c1ccc(Cl)cc1Cl (stereo in doubt) [compound #168]
[reply] 4.70 to 5.30

[ask] Report pIC50 on recombinant HCV NS5B (Hepatitis C virus genotype 1b, UniProt P26663) for this entry: O=C(O)[C@H](Cc1ccccc1)N(Cc1csc([N+](=O)[O-])c1)C(=O)c1ccc(Cl)cc1Cl [compound #149]
[reply] > 5.30

[ask] Report pIC50 on recombinant HCV NS5B (Hepatitis C virus genotype 1b, UniProt P26663) for this entry: O=C(O)[C@H](Cc1ccccc1)N(Cc1sccc1-c1ccc(OC(F)(F)F)cc1)C(=O)c1ccc(Cl)cc1Cl [compound #179]
[reply] 4.70 to 5.30

[ask] Report pIC50 on recombinant HCV NS5B (Hepatitis C virus genotype 1b, UniProt P26663) for this entry: CCOC(=O)c1ccc(-c2ccsc2CN(C(=O)c2ccc(Cl)cc2Cl)[C@@H](Cc2ccccc2)C(=O)O)cc1 [compound #160]
[reply] > 5.30

----------
experimental.target: recombinant HCV NS5B (Hepatitis C virus genotype 1b)
experimental.details: biochemical
test.settings: flashplate, polyrA/biotinylated-oligo dT, 100 nM NS5B, 2 hrs at room temperature; read-out: RNA pol Assay 2 IC50 (μm)
attribute.measured: IC50

>  <compound>
Nc1cccc(CN(C(=O)c2ccc(Cl)cc2Cl)[C@@H](Cc2ccccc2)C(=O)O)c1

>  <IC50>
5 to 20 µM

$$$$

[ask] Give the reported IC50 for this compound. Cc1cccc(CN(C(=O)c2ccc(Cl)cc2Cl)[C@@H](Cc2ccccc2)C(=O)O)c1
[reply] < 5 µM

[ask] Give the reported IC50 for this compound. CSc1ccc(-c2ccsc2CN(C(=O)c2ccc(Cl)cc2Cl)[C@@H](Cc2ccccc2)C(=O)O)cc1
[reply] 5 to 20 µM

[ask] Give the reported IC50 for this compound. O=C(O)[C@H](Cc1ccccc1)N(Cc1sccc1-c1ccc(Cl)c(F)c1)C(=O)c1ccc(Cl)cc1Cl
[reply] 5 to 20 µM

[ask] Give the reported IC50 for this compound. O=C(O)c1cccc(CN(C(=O)c2ccc(Cl)cc2Cl)[C@@H](Cc2ccccc2)C(=O)O)c1
[reply] < 5 µM

[ask] Give the reported IC50 for this compound. CC(c1cccc(C#N)c1)N(C(=O)c1ccc(Cl)cc1Cl)[C@@H](Cc1ccccc1)C(=O)O (stereo in doubt)
[reply] 5 to 20 µM

[ask] Give the reported IC50 for this compound. O=C(O)C(Cc1ccccc1)N(Cc1ccc(OCc2ccc(F)cc2)cc1)C(=O)c1ccc(Cl)cc1Cl (stereo not shown)
[reply] 5 to 20 µM

----------
Known pIC50 of a selection of molecules
experimental.target: HCV NS5B RNA-dependent RNA polymerase (Hepatitis C virus genotype 1b, UniProt P26663)
Sequence (P26663 2420-3010 limits assumed): as above
experimental.details: In vitro RNA-dependent RNA polymerase assay (Assay 1), polyA/oligo dT, TCA precipitation
Type: biochemical
test.settings: polyA/oligo dT template/primer, 200 ng NS5B, 2 h at 22° C.; read-out: RNA pol Assay 1 IC50 (μm)
pIC50: −log10 of the molar value.

Known pIC50 results, listed for orientation:
>  <molecule>
O=C(O)[C@H](Cc1ccc(O)cc1)N(Cc1ccc(-c2cc3ccccc3o2)cc1)C(=O)c1ccc(Cl)cc1Cl [compound #33]

>  <attribute.measured>
pIC50

>  <value.observed>
> 5.30

$$$$
>  <molecule>
O=C(O)[C@H](Cc1ccccc1)N(Cc1ccc(-c2nccs2)o1)C(=O)c1ccc(Cl)cc1Cl [compound #74]

>  <attribute.measured>
pIC50

>  <value.observed>
> 5.30

$$$$
>  <molecule>
O=C(O)C[C@H](Cc1ccccc1)N(Cc1ccc(-c2cccc(C(F)(F)F)c2)o1)C(=O)c1ccc(Cl)cc1Cl [compound #63]

>  <attribute.measured>
pIC50

>  <value.observed>
> 5.30

$$$$
>  <molecule>
O=C(O)[C@H](Cc1ccccc1)N(Cc1ccc(-c2cccc(F)c2)s1)C(=O)c1ccc(Cl)cc1Cl [compound #97]

>  <attribute.measured>
pIC50

>  <value.observed>
> 5.30

$$$$
>  <molecule>
COc1cccc(-c2ccc(CN(C(=O)c3ccc(Cl)cc3Cl)[C@@H](Cc3ccccc3)C(=O)O)s2)c1 [compound #96]

>  <attribute.measured>
pIC50

>  <value.observed>
> 5.30

$$$$
>  <molecule>
Cc1cc(Cl)ccc1C(=O)N(Cc1cccc(Br)c1)[C@@H](Cc1ccccc1)C(=O)O [compound #34]

>  <attribute.measured>
pIC50

>  <value.observed>
> 5.30

$$$$
>  <molecule>
O=C(O)c1cccc(-c2ccc(CN(C(=O)c3ccc(Cl)cc3Cl)[C@@H](Cc3ccccc3)C(=O)O)s2)c1 [compound #125]

>  <attribute.measured>
pIC50

>  <value.observed>
> 5.30

$$$$
>  <molecule>
COc1ccc(-c2ccc(CN(C(=O)c3ccc(Cl)cc3Cl)[C@@H](Cc3ccccc3)C(=O)O)o2)cc1 [compound #134]

>  <attribute.measured>
pIC50

>  <value.observed>
> 5.30

$$$$

Proceeding to the next molecule to report its pIC50.
[ask] Give the reported pIC50 for this molecule. O=C(O)[C@H](Cc1ccccc1)N(Cc1ccc(-c2ccccc2[N+](=O)[O-])o1)C(=O)c1ccc(Cl)cc1Cl [compound #62]
[reply] > 5.30
